Tested on: choroidal neovascularization
Assay: Choroidal neovascularization in rats (laser photocoagulation, FFA)
Assay type: in vivo
Details: day 14 after administration, total light spot number was 137, 0.05 μM in the vitreous chamber once a day for 1 week, BN rats
Peptide text beside a SMILES is read from it. * marks the point of attachment. X65 = O=C1C=CC(=O)N1c1cccc(CCCCCCCCCCCCC(=O)*)c1; X74 = O=C1C=CC(=O)N1c1cccc(CCCCCCCCCCC(=O)*)c1; X72 = O=C1C=CC(=O)N1c1ccccc1CCCCCCCCCCC(=O)*
measured-property: CNV Incidence (%)
Numbers only, in %.

Give CNV Incidence (%) for all compounds that follow.
1. C[C@H](NC(=O)CNC(=O)[C@H](CCCNC(=N)N)NC(=O)CCCCCCCCCCCCc1cccc(N2C(=O)C=CC2=O)c1)C(=O)N[C@@H](CC(=O)O)C(=O)N[C@@H](CCCNC(=N)N)C(=O)N[C@@H](C)C(=O)NCC(=O)NCC(=O)NCC(=O)NCC(=O)N[C@@H](CCCNC(=N)N)C(=O)NCC(=O)N[C@@H](CC(=O)O)C(=O)O [X36] (X65-RGADRAGGGGRGD-OH)
2. C[C@H](NC(=O)CNC(=O)[C@H](CCCNC(=N)N)NC(=O)CCCCCCCCCCc1ccccc1N1C(=O)C=CC1=O)C(=O)N[C@@H](CC(=O)O)C(=O)N[C@@H](CCCNC(=N)N)C(=O)N[C@@H](C)C(=O)NCC(=O)NCC(=O)NCC(=O)NCC(=O)N[C@@H](CCCNC(=N)N)C(=O)NCC(=O)N[C@@H](CC(=O)O)C(=O)O [X22] (X72-RGADRAGGGGRGD-OH)

1: 40.15; 2: 43.80

According to the records, this compound C[C@H](NC(=O)CNC(=O)[C@H](CCCNC(=N)N)NC(=O)CCCCCCCCCCc1cccc(N2C(=O)C=CC2=O)c1)C(=O)N[C@@H](CC(=O)O)C(=O)N[C@@H](CCCNC(=N)N)C(=O)N[C@@H](C)C(=O)NCC(=O)NCC(=O)NCC(=O)NCC(=O)N[C@@H](CCCNC(=N)N)C(=O)NCC(=O)N[C@@H](CC(=O)O)C(=O)O [X34] (X74-RGADRAGGGGRGD-OH) displays CNV Incidence (%) of 45.99

---

Please respond with reported Swelling degree 3 h for every item in the list.
Tested on: carrageenan-induced toe swelling
Test: Carrageenan-induced toe swelling in rats
Type: in vivo
Details: SD rats, 2.0 mg/kg once a day for 3 d, 3 h after carrageenan
Peptide text beside a SMILES is read from it. * marks the point of attachment. X58 = O=C1C=CC(=O)N1c1cccc(CCCCCCCCCCCC(=O)*)c1; X84 = O=C1C=CC(=O)N1c1ccccc1CCCCCCCCCCCCC(=O)*; X64 = O=C1C=CC(=O)N1c1cccc(CCCCCCCCCC(=O)*)c1; X68 = O=C1C=CC(=O)N1c1ccccc1CCCCCCCCCCCC(=O)*; X72 = O=C1C=CC(=O)N1c1ccccc1CCCCCCCCCCC(=O)*; X60 = O=C1C=CC(=O)N1c1ccccc1CCCCCCCCCC(=O)*; X54 = O=C1C=CC(=O)N1c1cccc(CCCCCCC(=O)*)c1; X52 = O=C1C=CC(=O)N1c1ccccc1CCCCCCCC(=O)*; X71 = O=C1C=CC(=O)N1c1cccc(CCCCCC(=O)*)c1; X49 = O=C1C=CC(=O)N1c1ccccc1CCCCCC(=O)*; X79 = O=C1C=CC(=O)N1c1cccc(CCC(=O)*)c1
Numbers only, in mg.

# compound, tested-system, measurement
records = [
    ("C[C@H](NC(=O)CNC(=O)[C@H](CCCNC(=N)N)NC(=O)CCCCCCCCCc1cccc(N2C(=O)C=CC2=O)c1)C(=O)N[C@@H](CC(=O)O)C(=O)N[C@@H](CCCNC(=N)N)C(=O)N[C@@H](C)C(=O)NCC(=O)NCC(=O)NCC(=O)NCC(=O)N[C@@H](CCCNC(=N)N)C(=O)NCC(=O)N[C@@H](CC(=O)O)C(=O)O [X33] (X64-RGADRAGGGGRGD-OH)", "carrageenan-induced toe swelling", 0.37),
    ("C[C@H](NC(=O)CNC(=O)[C@H](CCCNC(=N)N)NC(=O)CCCCCCCCCc1ccccc1N1C(=O)C=CC1=O)C(=O)N[C@@H](CC(=O)O)C(=O)N[C@@H](CCCNC(=N)N)C(=O)N[C@@H](C)C(=O)NCC(=O)NCC(=O)NCC(=O)NCC(=O)N[C@@H](CCCNC(=N)N)C(=O)NCC(=O)N[C@@H](CC(=O)O)C(=O)O [X21] (X60-RGADRAGGGGRGD-OH)", "carrageenan-induced toe swelling", 0.32),
    ("C[C@H](NC(=O)CNC(=O)[C@H](CCCNC(=N)N)NC(=O)CCCCCCCCCCCc1cccc(N2C(=O)C=CC2=O)c1)C(=O)N[C@@H](CC(=O)O)C(=O)N[C@@H](CCCNC(=N)N)C(=O)N[C@@H](C)C(=O)NCC(=O)NCC(=O)NCC(=O)NCC(=O)N[C@@H](CCCNC(=N)N)C(=O)NCC(=O)N[C@@H](CC(=O)O)C(=O)O [X35] (X58-RGADRAGGGGRGD-OH)", "carrageenan-induced toe swelling", 0.38),
]

Give Swelling degree 3 h for all compounds that follow.
1. C[C@H](NC(=O)CNC(=O)[C@H](CCCNC(=N)N)NC(=O)CCc1cccc(N2C(=O)C=CC2=O)c1)C(=O)N[C@@H](CC(=O)O)C(=O)N[C@@H](CCCNC(=N)N)C(=O)N[C@@H](C)C(=O)NCC(=O)NCC(=O)NCC(=O)NCC(=O)N[C@@H](CCCNC(=N)N)C(=O)NCC(=O)N[C@@H](CC(=O)O)C(=O)O [X26] (X79-RGADRAGGGGRGD-OH)
2. C[C@H](NC(=O)CNC(=O)[C@H](CCCNC(=N)N)NC(=O)CCCCCCc1cccc(N2C(=O)C=CC2=O)c1)C(=O)N[C@@H](CC(=O)O)C(=O)N[C@@H](CCCNC(=N)N)C(=O)N[C@@H](C)C(=O)NCC(=O)NCC(=O)NCC(=O)NCC(=O)N[C@@H](CCCNC(=N)N)C(=O)NCC(=O)N[C@@H](CC(=O)O)C(=O)O [X30] (X54-RGADRAGGGGRGD-OH)
3. C[C@H](NC(=O)CNC(=O)[C@H](CCCNC(=N)N)NC(=O)CCCCCCCCCCc1ccccc1N1C(=O)C=CC1=O)C(=O)N[C@@H](CC(=O)O)C(=O)N[C@@H](CCCNC(=N)N)C(=O)N[C@@H](C)C(=O)NCC(=O)NCC(=O)NCC(=O)NCC(=O)N[C@@H](CCCNC(=N)N)C(=O)NCC(=O)N[C@@H](CC(=O)O)C(=O)O [X22] (X72-RGADRAGGGGRGD-OH)

0.31
0.36
0.31

Give Swelling degree 3 h for all compounds that follow.
1. C[C@H](NC(=O)CNC(=O)[C@H](CCCNC(=N)N)NC(=O)CCCCCc1ccccc1N1C(=O)C=CC1=O)C(=O)N[C@@H](CC(=O)O)C(=O)N[C@@H](CCCNC(=N)N)C(=O)N[C@@H](C)C(=O)NCC(=O)NCC(=O)NCC(=O)NCC(=O)N[C@@H](CCCNC(=N)N)C(=O)NCC(=O)N[C@@H](CC(=O)O)C(=O)O [X17] (X49-RGADRAGGGGRGD-OH)
2. C[C@H](NC(=O)CNC(=O)[C@H](CCCNC(=N)N)NC(=O)CCCCCCCCCCCc1ccccc1N1C(=O)C=CC1=O)C(=O)N[C@@H](CC(=O)O)C(=O)N[C@@H](CCCNC(=N)N)C(=O)N[C@@H](C)C(=O)NCC(=O)NCC(=O)NCC(=O)NCC(=O)N[C@@H](CCCNC(=N)N)C(=O)NCC(=O)N[C@@H](CC(=O)O)C(=O)O [X23] (X68-RGADRAGGGGRGD-OH)
3. C[C@H](NC(=O)CNC(=O)[C@H](CCCNC(=N)N)NC(=O)CCCCCCCc1ccccc1N1C(=O)C=CC1=O)C(=O)N[C@@H](CC(=O)O)C(=O)N[C@@H](CCCNC(=N)N)C(=O)N[C@@H](C)C(=O)NCC(=O)NCC(=O)NCC(=O)NCC(=O)N[C@@H](CCCNC(=N)N)C(=O)NCC(=O)N[C@@H](CC(=O)O)C(=O)O [X19] (X52-RGADRAGGGGRGD-OH)
4. C[C@H](NC(=O)CNC(=O)[C@H](CCCNC(=N)N)NC(=O)CCCCCCCCCCCCc1ccccc1N1C(=O)C=CC1=O)C(=O)N[C@@H](CC(=O)O)C(=O)N[C@@H](CCCNC(=N)N)C(=O)N[C@@H](C)C(=O)NCC(=O)NCC(=O)NCC(=O)NCC(=O)N[C@@H](CCCNC(=N)N)C(=O)NCC(=O)N[C@@H](CC(=O)O)C(=O)O [X24] (X84-RGADRAGGGGRGD-OH)

0.32
0.34
0.33
0.34

According to the records, this compound C[C@H](NC(=O)CNC(=O)[C@H](CCCNC(=N)N)NC(=O)CCCCCc1cccc(N2C(=O)C=CC2=O)c1)C(=O)N[C@@H](CC(=O)O)C(=O)N[C@@H](CCCNC(=N)N)C(=O)N[C@@H](C)C(=O)NCC(=O)NCC(=O)NCC(=O)NCC(=O)N[C@@H](CCCNC(=N)N)C(=O)NCC(=O)N[C@@H](CC(=O)O)C(=O)O [X29] (X71-RGADRAGGGGRGD-OH) displays Swelling degree 3 h of 0.35
